# Tested on: MS2 coat protein
# TEST: apparent KD of MS2 coat protein; designed switch direction (-1 OFF switch, 1 ON switch): -1; higher = weaker reporter binding
# COND: input ligand: none
MEASURE NAME: apparent KD of MS2 coat protein (nM)
State the answer as a number, implicitly in nM.

Some solved entries appear below for comparison.
| SEQUENCE ENTRY | apparent KD of MS2 coat protein, nM |
| --- | --- |
| UCGUGUAUAGAGGAUAUAUUAUUUUUUUUAACAAUAGAAGGCUAAACAUGAGGAUCACCCAUGUAUUUGGUUUU [JR_Ex6_Sub051] (Eterna round: R97, puzzle: Exclusion 6) | 22.9 |
| CGGCAAAGGAAGGAUAUGCUAGACGAUAGUCUAGCAGAAGGUCCUACAUGAGGAUCACCCAUGUGUCCUAGCCG [Mat - Exclusion 6 - Eli Mod - D9] (Eterna round: R97, puzzle: Exclusion 6) | 44.3 |

## Task Name the recorded apparent KD of MS2 coat protein for GAGGAUGUAGGAUAUACUUAGGGUGAGCUCUAAGUGAAUCAACAUGAGGAUCACCCAUGUAGAAGGGCAGGACG [Eternabot (Original) Solution 37] (Eterna round: R97, puzzle: Exclusion 2) .
## Result 122

## Task Try this sequence next: UUCUCGUCAGGAUAUUUGUUGUUGUUGGAAACGGCGGCGGCGGAGAAGGGACAUGAGGAUCACCCAUGUCUGGU [-27.7, -24.8 kcal, 20% A] (Eterna round: R97, puzzle: Exclusion 4)
## Result 21.2

## Task Do the same for AAAUUAGCAAGUAGGUCCGACAUGAGGAUCACCCAUGUUAUCUGAAAUAACGCUGCAUGAUUGUGCGCUCGUCUUAG [Sensor-V1 #8] (Eterna round: R97, puzzle: Sensor, turn-off variant 1) please
## Result 73.1
